Assay info: Cytotoxicity against HEK cells assessed as cell viability at 10.5 ug/ml after 24 hrs by CellTiter-Glo assay relative to control
Format: toxicity, cell-based, HEK293
Condition summary: human, read-out: Activity
Measurement label: viability at 24 h, 10.5 ug/ml (%)
Numbers only; they are read as %.

Given the entry CCCCCCOc1ccc2[nH]cc(CCN)c2c1.Cl , report its measured viability at 24 h, 10.5 ug/ml. 0.1

* * *

Assay info: Cytotoxicity against HEK cells assessed as cell viability at 3.2 ug/ml after 24 hrs by CellTiter-Glo assay relative to control
Assay type: toxicity, cell-based, HEK293
Condition summary: human, read-out: Activity
Measurement label: viability at 24 h, 3.2 ug/ml (%)
Numbers only; they are read as %.

Given the entry CCCCCCCCCCOc1ccc2[nH]cc(CCN)c2c1.Cl , report its measured viability at 24 h, 3.2 ug/ml. 13.4
